Target: OE19 (3A1) (Homo sapiens, UniProt P30838)
Assay: Cellular ALDEFLUOR assay in OE19 cells (preferential ALDH3A1 expression)
Conditions: Table S5, OE19 cells
PARAMETER: Cell_Efficacy

                         chemical_structure  assay_result
0  O=C(NCc1ccc(Oc2ccc(F)cc2)cc1)c1csc(N2CCN(c3cccc(C(F)(F)F)c3)CC2)n1       -108.81
1  O=C(NCc1ccc(Cl)c(F)c1)c1csc(N2CCN(c3cccc(C(F)(F)F)c3)CC2)n1        -88.16
2  O=C(NCc1ccc(Br)c(C(F)(F)F)c1)c1csc(N2CCN(c3cccc(C(F)(F)F)c3)CC2)n1        -77.80
3  O=C(NCc1cccc(OC(F)(F)F)c1)c1csc(N2CCN(c3cccc(C(F)(F)F)c3)CC2)n1       -103.28

###

Biological target: Human ALDH3A1 (Homo sapiens, UniProt P30838)
Assay: ALDH3A1 biochemical assay (benzaldehyde/NADP+, diaphorase-resazurin readout, 1,536-well)
Settings: Table S4, biochemical
PARAMETER: Efficacy

                         chemical_structure  assay_result
0  Cc1cccc(CNC(=O)c2csc(N3CCN(c4ccc(F)cc4)CC3)n2)c1        -94.91
1  Cc1cccc(CNC(=O)c2csc(N3CCN(c4c(F)cccc4F)CC3)n2)c1        -88.99
2  Cc1cccc(CNC(=O)c2csc(N3CCN(c4cc(F)cc(F)c4)CC3)n2)c1        -87.41

###

Target: UniProtKB P30838
Assay: ALDH3A1 biochemical assay (benzaldehyde/NADP+, diaphorase-resazurin readout, 1,536-well)
Details: Table S5, biochemical curve class
PARAMETER: CC-v2

                         chemical_structure  assay_result
0  O=C(NCc1cccc(N2CCC2=O)c1)c1csc(N2CCN(c3cccc(C(F)(F)F)c3)CC2)n1          -1.1

1. O=C(Nc1ccc(F)cc1)c1ccc(CNC(=O)c2csc(N3CCN(c4cccc(C(F)(F)F)c4)CC3)n2)cc1
2. O=C(NCc1cccc(C(=O)N2CCCCC2)c1)c1csc(N2CCN(c3cccc(C(F)(F)F)c3)CC2)n1
(Q) Hi there! Just curious which has the higher CC-v2 between 1 and 2 . Respond using the label that marks the chosen record.
(A) 2

###

Biological target: UniProtKB P30838
Sequence (P30838 1-453): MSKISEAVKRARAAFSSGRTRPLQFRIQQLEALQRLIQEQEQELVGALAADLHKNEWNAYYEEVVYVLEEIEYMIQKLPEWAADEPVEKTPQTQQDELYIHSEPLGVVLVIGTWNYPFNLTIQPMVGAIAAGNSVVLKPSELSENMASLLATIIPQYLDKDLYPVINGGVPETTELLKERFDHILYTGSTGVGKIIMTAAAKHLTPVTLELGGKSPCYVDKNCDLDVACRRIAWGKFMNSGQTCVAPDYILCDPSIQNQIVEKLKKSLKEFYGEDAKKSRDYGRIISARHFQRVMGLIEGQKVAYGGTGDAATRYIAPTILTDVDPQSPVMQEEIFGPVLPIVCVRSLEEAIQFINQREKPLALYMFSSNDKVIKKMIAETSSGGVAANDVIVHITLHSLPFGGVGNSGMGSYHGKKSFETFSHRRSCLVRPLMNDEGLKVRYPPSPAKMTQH
Assay: Cellular ALDEFLUOR assay in OE19 cells (preferential ALDH3A1 expression)
Conditions: Table S5, cellular curve class
PARAMETER: Cell_CC-v2

Example results:
                                   compound     tested_target  assay_result
0  N#Cc1cccc(CNC(=O)c2csc(N3CCN(c4cccc(C(F)(F)F)c4)CC3)n2)c1 [NCGC01397393-01]  UniProtKB P30838          -2.2
1  O=C(NCc1ccc(Br)c(C(F)(F)F)c1)c1csc(N2CCN(c3cccc(C(F)(F)F)c3)CC2)n1 [NCGC01396480-01]  UniProtKB P30838          -1.4
2  O=C(NCc1ccccc1-c1ccc(Cl)cc1Cl)c1csc(N2CCN(c3cccc(C(F)(F)F)c3)CC2)n1 [NCGC01407762-01]  UniProtKB P30838          -1.4
3  O=C(NCc1cc(F)cc(Br)c1)c1csc(N2CCN(c3cccc(C(F)(F)F)c3)CC2)n1 [NCGC01397297-01]  UniProtKB P30838          -1.1
4  O=C(NCc1ccc2c(c1)COC2=O)c1csc(N2CCN(c3cccc(C(F)(F)F)c3)CC2)n1 [NCGC01396481-01]  UniProtKB P30838          -1.4
5  Cc1ccc(CNC(=O)c2csc(N3CCN(c4cccc(C(F)(F)F)c4)CC3)n2)cc1C(F)(F)F [NCGC01407772-01]  UniProtKB P30838          -1.1
6  C[S+](=O)([O-])c1cccc(CNC(=O)c2csc(N3CCN(c4cccc(C(F)(F)F)c4)CC3)n2)c1 [NCGC01407971-01]  UniProtKB P30838          -1.1
7  O=C(NCc1ccc(Oc2ccc(F)cc2)cc1)c1csc(N2CCN(c3cccc(C(F)(F)F)c3)CC2)n1 [NCGC01407922-01]  UniProtKB P30838          -1.1
8  COc1cc(C)cc(CNC(=O)c2csc(N3CCN(c4cccc(C(F)(F)F)c4)CC3)n2)c1 [NCGC01407935-01]  UniProtKB P30838          -1.1
9  O=C(NCc1ccc(F)c(F)c1)c1csc(N2CCN(c3cccc(C(F)(F)F)c3)CC2)n1 [NCGC01407951-01]  UniProtKB P30838          -1.3

1. Cc1cc(CNC(=O)c2csc(N3CCN(c4cccc(C(F)(F)F)c4)CC3)n2)ccc1-c1ccccc1 [NCGC01407768-01]
2. O=C(Nc1ccc(CNC(=O)c2csc(N3CCN(c4cccc(C(F)(F)F)c4)CC3)n2)cc1)c1ccncc1 [NCGC01397389-01]
3. O=C(NCc1cccc(N2CCC[S+]2(=O)[O-])c1)c1csc(N2CCN(c3cccc(C(F)(F)F)c3)CC2)n1 [NCGC01407948-01]
(Q) Give the ascending ranking of the items by reported Cell_CC-v2. The reply should contain the labels ordered as requested.
(A) 2, 1, 3
